molecular target: rat Adrenergic Receptor, Beta (Adrb), Non-selective Binding, Adrb1 (gene 24925) (UniProt P18090); experiment: NVS_GPCR_rAdrb_NonSelective: NovaScreen (NVS) G Protein-Coupled Receptor Assay for rat Adrenergic Receptor, Beta (Adrb), Non-selective Binding (AID 2283298)
Sequence (P18090 whole entry, looked up): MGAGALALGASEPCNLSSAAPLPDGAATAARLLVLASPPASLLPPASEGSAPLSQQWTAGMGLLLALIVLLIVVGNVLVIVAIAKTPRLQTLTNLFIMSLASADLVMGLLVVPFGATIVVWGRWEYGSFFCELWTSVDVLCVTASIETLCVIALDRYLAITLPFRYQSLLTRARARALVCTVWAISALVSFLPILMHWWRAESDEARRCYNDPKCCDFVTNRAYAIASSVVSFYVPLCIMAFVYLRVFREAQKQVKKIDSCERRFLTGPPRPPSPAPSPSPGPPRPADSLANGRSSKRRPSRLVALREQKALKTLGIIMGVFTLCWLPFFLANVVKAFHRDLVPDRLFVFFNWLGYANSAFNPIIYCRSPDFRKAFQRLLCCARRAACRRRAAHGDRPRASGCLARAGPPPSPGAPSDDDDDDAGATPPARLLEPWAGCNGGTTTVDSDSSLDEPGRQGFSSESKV
Inconclusive results are not listed. Activity calls are given as the source filed them. How the source made its calls: active means hit-call score of the fitted dose curve at least 0.9, where 1 is the maximum; inconclusive means response in the unintended direction; inactive means score below 0.9.
READOUT_NAME: AC50

Take a look at these entries with their results.
In one line, give reported AC50 of the entry CCOC(=O)c1ccc(C2CCC(NC[C@H](O)COc3ccc(O)c(NS(C)(=O)=O)c3)CC2)cc1 (stereo partly specified) .
8.67 µM (active)

Name the recorded AC50 of the compound listed here: O=c1[nH]c2ccc(S(=O)CCN3CCC(Cc4ccc(F)cc4)CC3)cc2o1 (stereo unspecified)
inactive

Please report the measured AC50 for "CCn1nc(Cc2ccccc2)cc1C1CCN(C[C@H]2C[C@H](N(C)[C@@H](C(=O)O)C(C)C)C[C@@H]2c2cccc(F)c2)CC1"
inactive

Please report the measured AC50 for "CC1=CC(=O)CC(C)(C)C1"
inactive

Please give the documented AC50 of "CCCN(C1CCN(C(=O)C2CCNCC2)CC1)[C@@H]1CCc2ccc(OC)cc2C1"
18.3 µM (active)

More entries:
Indicate the recorded AC50 value for this compound: "Cc1[nH]cnc1C[C@H]1CCc2c(C)c3ccccc3n2C1=O"
4.78 µM (active)
